Tested on: Escherichia coli
test-conditions: JM109
Description: Activity of Beta-lactamase KHM-1 in Escherichia coli JM109 harboring recombinant pKHM-1 assessed as compound hydrolysis by UV-visible spectrophotometry
Returns T if the recorded kcat is greater than or equal to 1000 s⁻¹, and F otherwise.

>>> print(df.to_string())
                                   molecule               tgt  label_class
0  CO[C@@]1(NC(=O)C(C(=O)O)c2ccc(O)cc2)C(=O)N2C(C(=O)O)=C(CSc3nnnn3C)CO[C@@H]21 (stereo partly drawn)  Escherichia coli            T
1  CO[C@@]1(NC(=O)Cc2cccs2)C(=O)N2C(C(=O)O)=C(COC(N)=O)CS[C@@H]21  Escherichia coli            T
2  C[C@@H](O)[C@H]1C(=O)N2C(C(=O)O)=C(S[C@@H]3CN[C@H](C(=O)N(C)C)C3)[C@H](C)[C@H]12  Escherichia coli            F
3  CC(C)(O/N=C(\C(=O)N[C@@H]1C(=O)N2C(C(=O)[O-])=C(C[n+]3ccccc3)CS[C@H]12)c1csc(N)n1)C(=O)O  Escherichia coli            F
4  CO/N=C(\C(=O)N[C@@H]1C(=O)N2C(C(=O)O)=C(COC(C)=O)CS[C@H]12)c1csc(N)n1  Escherichia coli            T
5  CC1(C)S[C@@H]2[C@H](NC(=O)Cc3ccccc3)C(=O)N2[C@H]1C(=O)O  Escherichia coli            F
6  O=C(Cc1cccs1)N[C@@H]1C(=O)N2C(C(=O)[O-])=C(C[n+]3ccccc3)CS[C@H]12  Escherichia coli            F
7  CC1(C)S[C@@H]2[C@H](NC(=O)[C@H](N)c3ccccc3)C(=O)N2[C@H]1C(=O)O  Escherichia coli            F

====

System: Escherichia coli
test-conditions: JM109
property: Km (µM)

In [3]: df
Out[3]:
                                   compound  property  measurement
0  CC1(C)S[C@@H]2[C@H](NC(=O)Cc3ccccc3)C(=O)N2[C@H]1C(=O)O        Km         1340
1  C[C@@H](O)[C@H]1C(=O)N2C(C(=O)O)=C(S[C@@H]3CN[C@H](C(=O)N(C)C)C3)[C@H](C)[C@H]12        Km           12
2  CO[C@@]1(NC(=O)Cc2cccs2)C(=O)N2C(C(=O)O)=C(COC(N)=O)CS[C@@H]21        Km           81
3  CO/N=C(\C(=O)N[C@@H]1C(=O)N2C(C(=O)O)=C(COC(C)=O)CS[C@H]12)c1csc(N)n1        Km           13
4  O=C(Cc1cccs1)N[C@@H]1C(=O)N2C(C(=O)[O-])=C(C[n+]3ccccc3)CS[C@H]12        Km          4.4
5  CO[C@@]1(NC(=O)C(C(=O)O)c2ccc(O)cc2)C(=O)N2C(C(=O)O)=C(CSc3nnnn3C)CO[C@@H]21 (stereo partly drawn)        Km           71
6  CC(C)(O/N=C(\C(=O)N[C@@H]1C(=O)N2C(C(=O)[O-])=C(C[n+]3ccccc3)CS[C@H]12)c1csc(N)n1)C(=O)O        Km            8
7  CC1(C)S[C@@H]2[C@H](NC(=O)[C@H](N)c3ccccc3)C(=O)N2[C@H]1C(=O)O        Km          978

====

Test system: Citrobacter freundii
protocol: Antibacterial activity against Citrobacter freundii KHM243 clinical isolate by microdilution method
Type: functional
Reported values of MIC for individual entries
property: MIC

>>> print(df.to_string())
                                   compound  measurement
0  CO/N=C(\C(=O)N[C@@H]1C(=O)N2C(C(=O)O)=C(COC(C)=O)CS[C@H]12)c1csc(N)n1 [CEFOTAXIME]     64 µg/mL
1  NC(=O)OC[C@@H]1[C@H](NC(=O)/C(=N\OCC(=O)O)c2csc(N)n2)C(=O)N1S(=O)(=O)O [CARUMONAM]   0.25 µg/mL
2  C[C@@H](O)[C@H]1C(=O)N2C(C(=O)O)=C(S[C@@H]3CN[C@H](C(=O)N(C)C)C3)[C@H](C)[C@H]12 [MEROPENEM]      4 µg/mL
3  O=C(Cc1cccs1)N[C@@H]1C(=O)N2C(C(=O)[O-])=C(C[n+]3ccccc3)CS[C@H]12 [CEPHALORIDINE]    512 µg/mL

====

System: Citrobacter freundii
protocol: Antibacterial activity against Citrobacter freundii KHM243 clinical isolate by microdilution method
Type: functional
property: MIC

                                    compound  property  measurement
 0  CO/N=C(\C(=O)N[C@@H]1C(=O)N2C(C(=O)[O-])=C(C[n+]3ccn4ncccc43)CS[C@H]12)c1nsc(N)n1       MIC     16 µg/mL
 1  CC1(C)S[C@@H]2[C@H](NC(=O)[C@H](N)c3ccccc3)C(=O)N2[C@H]1C(=O)O       MIC    256 µg/mL
 2  CO[C@@]1(NC(=O)C(C(=O)O)c2ccc(O)cc2)C(=O)N2C(C(=O)O)=C(CSc3nnnn3C)CO[C@@H]21 (some centres undefined)       MIC    256 µg/mL
 3  CO/N=C(\C(=O)N[C@@H]1C(=O)N2C(C(=O)O)=C(COC(N)=O)CS[C@H]12)c1ccco1       MIC  > 512 µg/mL
 4  CCN1CCN(C(=O)N[C@@H](C(=O)N[C@]2(OC)C(=O)N3C(C(=O)O)=C(CSc4nnnn4C)CS[C@@H]32)[C@H](C)O)C(=O)C1=O       MIC    128 µg/mL
 5  CO[C@@]1(NC(=O)CSC(F)F)C(=O)N2C(C(=O)O)=C(CSc3nnnn3CCO)CO[C@@H]21       MIC     64 µg/mL
 6  CCN1CCN(C(=O)N[C@@H](C(=O)N[C@@H]2C(=O)N3[C@@H]2SC(C)(C)[C@@H]3C(=O)O)c2ccccc2)C(=O)C1=O       MIC      4 µg/mL
 7  CC1(C)S[C@@H]2[C@H](NC(=O)[C@H](C(=O)O)c3ccsc3)C(=O)N2[C@H]1C(=O)O       MIC  > 512 µg/mL
 8  CC(C)(O/N=C(\C(=O)N[C@@H]1C(=O)N2C(C(=O)[O-])=C(C[n+]3ccccc3)CS[C@H]12)c1csc(N)n1)C(=O)O       MIC  > 512 µg/mL
 9  CO[C@@]1(NC(=O)C2SC(=C(C(N)=O)C(=O)O)S2)C(=O)N2C(C(=O)O)=C(CSc3nnnn3C)CS[C@@H]21 (some centres undefined)       MIC    128 µg/mL
10  CO[C@@]1(NC(=O)Cc2cccs2)C(=O)N2C(C(=O)O)=C(COC(N)=O)CS[C@@H]21       MIC    512 µg/mL
11  CO[C@@]1(NC(=O)CSC[C@@H](N)C(=O)O)C(=O)N2C(C(=O)O)=C(CSc3nnnn3C)CS[C@@H]21       MIC    512 µg/mL
12  C[C@@H](O)[C@H]1C(=O)N2C(C(=O)O)=C(SCCNC=N)C[C@H]12 [IMIPENEM ANHYDROUS]       MIC      2 µg/mL
13  CO[C@@]1(NC(=O)CSCC#N)C(=O)N2C(C(=O)O)=C(CSc3nnnn3C)CS[C@@H]21       MIC    512 µg/mL

====

System: Escherichia coli
protocol: Ratio of Kcat to Km for Escherichia coli JM109 harboring recombinant pKHM-1 Beta-lactamase KHM-1 assessed as compound hydrolysis by UV-visible spectrophotometry
property: kcat/Km (×10⁴ /M/s)

>>> df
                                   molecule  measurement
0  C[C@@H](O)[C@H]1C(=O)N2C(C(=O)O)=C(S[C@@H]3CN[C@H](C(=O)N(C)C)C3)[C@H](C)[C@H]12 [MEROPENEM]          3.3
1  CC1(C)S[C@@H]2[C@H](NC(=O)Cc3ccccc3)C(=O)N2[C@H]1C(=O)O          1.7
2  CC1(C)S[C@@H]2[C@H](NC(=O)[C@H](N)c3ccccc3)C(=O)N2[C@H]1C(=O)O [AMPICILLIN]          1.9
3  C[C@@H](O)[C@H]1C(=O)N2C(C(=O)O)=C(SCCNC=N)C[C@H]12 [IMIPENEM ANHYDROUS]          5.6

====

Test system: Escherichia coli
protocol: Ratio of Kcat to Km for Escherichia coli JM109 harboring recombinant pKHM-1 Beta-lactamase KHM-1 assessed as compound hydrolysis by UV-visible spectrophotometry
Quick reference for kcat/Km among some molecules
property: kcat/Km (×10⁷ /M/s)

>>> print(df.to_string())
                                   molecule               tgt  property  measurement
0  CC(C)(O/N=C(\C(=O)N[C@@H]1C(=O)N2C(C(=O)[O-])=C(C[n+]3ccccc3)CS[C@H]12)c1csc(N)n1)C(=O)O  Escherichia coli   kcat/Km          1.5
1  CO[C@@]1(NC(=O)Cc2cccs2)C(=O)N2C(C(=O)O)=C(COC(N)=O)CS[C@@H]21  Escherichia coli   kcat/Km          1.4
2  CO[C@@]1(NC(=O)C(C(=O)O)c2ccc(O)cc2)C(=O)N2C(C(=O)O)=C(CSc3nnnn3C)CO[C@@H]21 (some centres undefined)  Escherichia coli   kcat/Km          3.9
